From: paper PMC5826148

# test.summary: Cytotoxicity assay, HepG2 cells (CellTiter 96 AQueous One)
# test.context: human, HepG2 cells
Assign CC50 at 24 h to each entry below.
One number for each entry, in µM.

# annotated cases, reported CC50 at 24 h shown
compound: Oc1ccc(Oc2ccccc2)cc1
measurement.unit: µM
CC50 at 24 h: 202

compound: N#Cc1ccc(O)cc1F [Fragment F22, 2-Fluoro-4-hydroxybenzonitrile]
measurement.unit: µM
CC50 at 24 h: 879

Give one value of CC50 at 24 h per listed compound.
1. CNCc1ccccc1Oc1ccccc1 [Fragment F23, Methyl[(2-phenoxyphenyl)methyl]amine]
2. CCOC(=O)c1c(N)sc(C)c1-c1ccccc1
3. O=C(O)c1ccc(-c2ccccc2)s1
4. Clc1ccc2nc(N3CCCNCC3)sc2c1

[789, 233, 612, 187]

----------
Assign MIC50 to each entry below.
# Test system: Staphylococcus aureus
# test.summary: Spectrum of activity: S. aureus growth inhibition
# Type: cell-based
# test.context: Staphylococcus aureus; LB medium, overnight; read-out: Antibacterial activity (MIC50) S. aureus

molecule: Cc1n[nH]c(C)c1Oc1ccc(Cl)cc1
MIC50: 79 µM
--
molecule: Nc1ccc2oc3c(c2c1)CCCC3
MIC50: > 500 µM
--
molecule: Cc1ccc(-c2cc(C(=O)O)c(C)o2)cc1
MIC50: > 500 µM
--
molecule: N#Cc1ccc(O)cc1F [Fragment F22, 2-Fluoro-4-hydroxybenzonitrile]
MIC50: 343 µM
--
molecule: Cc1cc(C(=O)O)c(C)n1Cc1cccs1
MIC50: > 500 µM

Give one value of MIC50 per listed molecule.
1. O=C(O)c1ccc(-c2cccs2)s1 [Fragment F20, [2,2′-Bithiophene]-5-carboxylic acid]
2. Oc1noc2cc(Cl)ccc12 [Fragment F27, 6-Chlorobenzo[d]isoxazol-3-ol]
3. Cc1cc2cc(N)ccc2[nH]1
4. Cc1ncc(C(N)=S)[nH]1 [Fragment F3, 2-Methyl-1H-imidazole-4-carbothioamide]

["> 500 µM", "> 500 µM", "487 µM", "> 500 µM"]

----------
Assign MIC50 to each entry below.
# Tested on: Escherichia coli
# test.summary: Spectrum of activity: E. coli growth inhibition
# Format: cell-based
# test.context: Escherichia coli; LB medium, overnight; read-out: Antibacterial activity (MIC50) E. coli

compound: CCOC(=O)c1c(N)sc(C)c1-c1ccccc1
result: > 500 µM

Give one value of MIC50 per listed compound.
1. Clc1ccc2nc(N3CCCNCC3)sc2c1
2. Oc1noc2cc(Cl)ccc12 [Fragment F27, 6-Chlorobenzo[d]isoxazol-3-ol]
3. O=C(O)c1ccc(-c2cccs2)s1 [Fragment F20, [2,2′-Bithiophene]-5-carboxylic acid]

1. 324 µM
2. > 500 µM
3. > 500 µM

----------
# System: M. tuberculosis H37Rv
# test.summary: M. tuberculosis growth inhibition dose-response (MIC50), turbidity readout
# Type: cell-based, Mycobacterium tuberculosis
# test.context: Mycobacterium tuberculosis, 240 h; H37Rv, 10 days; read-out: Antibacterial activity (MIC50) M. tuberculosis
assay.readout: MIC50 (µM)
Numbers only, in µM.

Give one value of MIC50 per listed compound.
1. COC(=O)c1cc2ccccc2cn1 [Fragment F4, Methyl isoquinoline-3-carboxylate]
2. O=c1cc(C(F)(F)F)c2ccc(O)cc2o1
3. O=C(O)c1ccc(-c2ccsc2)cc1

175
213
320

Give one value of MIC50 per listed compound.
1. Clc1ccc2nc(N3CCCNCC3)sc2c1
2. Cc1oc(-c2ccc(Cl)cc2)cc1C(=O)N(C)C

198
135

----------
# test.summary: Pharmacokinetic study in uninfected CD-1 mice
# test.context: CD-1, mouse, plasma, po, 100 mg/kg, Cmax, Oral 100 mg/kg in PEG (solution), Ave +/- SD, n=3
assay.readout: Cmax (µg/mL)
Numbers only, in µg/mL.

Please look up its Cmax: O=C(O)CCc1c[nH]c2ccccc12 [Fragment F1]
118

----------
# test.summary: Pharmacokinetic study in uninfected CD-1 mice
# test.context: CD-1, mouse, plasma, iv, 5 mg/kg
assay.readout: Vd
Express the reported value numerically, then name its unit.

Please look up its Vd: O=C(O)CCc1c[nH]c2ccccc12 [Fragment F1]
0.25 L/kg

----------
# System: HepG2 cells
# test.summary: Cytotoxicity assay, HepG2 cells (CellTiter 96 AQueous One)
# test.context: read-out: Cytotoxicity HepG2 cells CC50; 24 h
assay.readout: CC50 (µM)
One number for each entry, in µM.

Please look up its CC50: NC(=S)COc1cccc(Cl)c1 [Fragment F13, 2-(3-Chlorophenoxy) ethanethioamide]
467

----------
Assign MIC50 to each entry below.
# Test system: Escherichia coli
# test.summary: Spectrum of activity: E. coli growth inhibition
# Assay type: cell-based
# test.context: Escherichia coli; LB medium, overnight; read-out: Antibacterial activity (MIC50) E. coli

compound: COC(=O)c1sc2ccccc2c1O [Fragment F9]
MIC50: > 500 µM
--
compound: O=C(O)CCc1c[nH]c2ccccc12 [Fragment F1]
MIC50: > 500 µM
--
compound: N#Cc1ccc(O)cc1F [Fragment F22, 2-Fluoro-4-hydroxybenzonitrile]
MIC50: 202 µM

Okay, next one:
Please look up its MIC50: O=C(O)c1ccc(-c2ccsc2)cc1 [Fragment F26, 4-(3-Thienyl)benzoic acid]
> 500 µM

----------
Assign MIC50 to each entry below.
# Test system: M. tuberculosis H37Rv
# test.summary: M. tuberculosis growth inhibition dose-response (MIC50), turbidity readout
# Format: cell-based, Mycobacterium tuberculosis
# test.context: Mycobacterium tuberculosis, 240 h; H37Rv, 10 days; read-out: Antibacterial activity (MIC50) M. tuberculosis
Express the reported value numerically, then name its unit.

# annotated cases, reported MIC50 shown
compound: O=C(O)c1csc2ccc(Cl)cc12
MIC50: 319 µM

compound: NCc1cccc(N2CCCCC2)n1
MIC50: 250 µM

compound: Cc1cc(C(=O)O)c(C)n1Cc1cccs1
MIC50: 247 µM

compound: Oc1ccc(Oc2ccccc2)cc1
MIC50: 439 µM

compound: Oc1noc2cc(Cl)ccc12 [Fragment F27, 6-Chlorobenzo[d]isoxazol-3-ol]
MIC50: 395 µM

compound: COC(=O)c1sc2ccccc2c1O
MIC50: 142 µM

Give one value of MIC50 per listed compound.
1. Cc1cc2cc(N)ccc2[nH]1
2. CSc1cc(-c2ccc(F)cc2)n[nH]1
3. OCc1csc(-c2ccc(C(F)(F)F)cc2)n1
4. O=C(O)CCc1c[nH]c2ccccc12

281 µM
195 µM
434 µM
68 µM

----------
# test.summary: Pharmacokinetic study in uninfected CD-1 mice
# test.context: CD-1, mouse, plasma, po, 100 mg/kg, AUC[0-8], Oral 100 mg/kg in PEG (solution), Ave +/- SD, n=3
assay.readout: AUC(0-t) (µg·h/mL)
Give bare numbers, in µg·h/mL.

Please look up its AUC(0-t): O=C(O)CCc1c[nH]c2ccccc12
312

----------
# test.summary: Pharmacokinetic study in uninfected CD-1 mice
# test.context: CD-1, mouse, plasma, po, 100 mg/kg, AUC[0-24], Oral 100 mg/kg in PEG (solution), Ave +/- SD, n=3
assay.readout: AUC(0-t) (µg·h/mL)
Answers are plain numbers, in µg·h/mL.

Please look up its AUC(0-t): O=C(O)CCc1c[nH]c2ccccc12
471

----------
# Test system: M. tuberculosis H37Rv
# test.summary: Bactericidal activity, CFU enumeration on agar after treatment
# Assay type: cell-based, Mycobacterium tuberculosis
# test.context: Mycobacterium tuberculosis, H37RV; M. tuberculosis; 1 mM; log CFU/ml reduction from initial inoculum; read-out: Bactericidal activity (log reduction) at 1 mM
Entry flag: y if log reduction at 1000 µM reaches 2; n if it does not.

Example entries and their recorded answers appear below.
compound: Clc1ccc2nc(N3CCCNCC3)sc2c1
answer.label: y
//
compound: COC(=O)c1sc2ccccc2c1O
answer.label: y
//
compound: NCc1cccc(N2CCCCC2)n1
answer.label: y

Evaluate N#Cc1ccc(O)cc1F [Fragment F22, 2-Fluoro-4-hydroxybenzonitrile] : log reduction at 1000 µM at minimum 2?
n

Same question, O=C(O)c1ccc(-c2ccccc2)s1 this time
n

Same question, Cc1ncc(C(N)=S)[nH]1 [Fragment F3, 2-Methyl-1H-imidazole-4-carbothioamide] this time
n

Same question, Cc1n[nH]c(C)c1Oc1ccc(Cl)cc1 this time
y

Same question, Oc1noc2cc(Cl)ccc12 [Fragment F27, 6-Chlorobenzo[d]isoxazol-3-ol] this time
n

Same question, O=C(O)c1csc2ccc(Cl)cc12 this time
y

----------
# System: human red blood cells (RBCs)
# test.summary: Red blood cell lysis assay
# test.context: hemolysis
assay.readout: RBCs HC50

# annotated cases, reported RBCs HC50 shown
compound: OCc1csc(-c2ccc(C(F)(F)F)cc2)n1
RBCs HC50: 786 µM
--
compound: Clc1ccc2nc(N3CCCNCC3)sc2c1
RBCs HC50: >1,000 μM
--
compound: Oc1noc2cc(Cl)ccc12 [Fragment F27, 6-Chlorobenzo[d]isoxazol-3-ol]
RBCs HC50: >1,000 μM
--
compound: Cc1n[nH]c(C)c1Oc1ccc(Cl)cc1
RBCs HC50: 453 µM
--
compound: N#Cc1ccc(O)cc1F [Fragment F22, 2-Fluoro-4-hydroxybenzonitrile]
RBCs HC50: >1,000 μM
--
compound: COC(=O)c1cc2ccccc2cn1 [Fragment F4, Methyl isoquinoline-3-carboxylate]
RBCs HC50: >1,000 μM
--
compound: NCc1cccc(N2CCCCC2)n1
RBCs HC50: >1,000 μM
--
compound: c1ccc2c(c1)[nH]c1cnccc12 [Fragment F6, 9H-Pyrido[3,4-b]indole]
RBCs HC50: 787 µM
--
compound: O=C(O)c1ccc(-c2cccs2)s1 [Fragment F20, [2,2′-Bithiophene]-5-carboxylic acid]
RBCs HC50: >1,000 μM
--
compound: Cc1ccc2c(c1)N(CCO)C(C)(C)CC2C.O (centres unmarked)
RBCs HC50: 471 µM

Give one value of RBCs HC50 per listed compound.
1. COC(=O)c1sc2ccccc2c1O
2. CNCc1ccccc1Oc1ccccc1 [Fragment F23, Methyl[(2-phenoxyphenyl)methyl]amine]
3. CSc1cc(-c2ccc(F)cc2)n[nH]1
4. Cc1cc(C(=O)O)c(C)n1Cc1cccs1
5. O=C(O)c1csc2ccc(Cl)cc12
6. Cc1cc2cc(N)ccc2[nH]1

1. >1,000 μM
2. >1,000 μM
3. >1,000 μM
4. >1,000 μM
5. 945 µM
6. >1,000 μM

Give one value of RBCs HC50 per listed compound.
1. O=C(O)c1cc2ccccc2cn1
2. Nc1ccc2oc3c(c2c1)CCCC3
3. O=C(O)CCc1c[nH]c2ccccc12
4. CCOC(=O)c1c(N)sc(C)c1-c1ccccc1

1: >1,000 μM; 2: >1,000 μM; 3: >1,000 μM; 4: 453 µM
